- test_target: Sigma intracellular receptor 2 (Homo sapiens, UniProt Q5BJF2)
- Sequence (Q5BJF2 whole entry): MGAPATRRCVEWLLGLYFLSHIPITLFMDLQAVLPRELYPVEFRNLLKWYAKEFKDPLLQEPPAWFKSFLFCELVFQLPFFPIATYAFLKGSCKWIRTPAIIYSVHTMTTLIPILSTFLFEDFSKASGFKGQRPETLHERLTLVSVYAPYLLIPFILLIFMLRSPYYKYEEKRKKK
- assay_protocol: Inhibition of sigma 2 receptor (unknown origin) assessed as binding constant
experimental_readout: Ki (µM)
Give the number; µM is assumed, so skip it.

compound: O=C(O)c1cc(-c2ccc(C3(O)[C@H]4CC[C@H]3CNC4)cc2)c2ccc(-c3ccc(C(F)(F)F)cc3)cc2c1 (some centres not stated)
experimental_readout: Ki
observed: 1.7

Query string: # Ki lookup, item O=C(O)c1cc(-c2ccc([C@@H]3C[C@@H]4C[C@H]3NC4=O)cc2)c2ccc(-c3ccc(C(F)(F)F)cc3)cc2c1
Result string: 2.1

Query string: How about O=C(O)c1cc(-c2ccc([C@H]3C[C@H]4C[C@@H]3CN4)cc2)c2ccc(-c3ccc(C(F)(F)F)cc3)cc2c1 (racemic) ?
Result string: 0.65

Query string: Next entry: N[C@@H]1C[C@H](C(=O)O)[C@@H](c2ccc(-c3cc(C(=O)O)cc4cc(-c5ccc(C(F)(F)F)cc5)ccc34)cc2)C1
Result string: 2

###

- test_target: Sigma intracellular receptor 2 (Homo sapiens, UniProt Q5BJF2)
- assay_protocol: Inhibition of sigma 2 receptor (unknown origin) assessed as binding constant
experimental_readout: pKi
As a rule, pKi stands for the negative log10 of the concentration, concentration in M.

smiles_string: O=C(O)c1cc(-c2ccc([C@H]3C[C@H]4C[C@@H]3NC4=O)cc2)c2ccc(-c3ccc(C(F)(F)F)cc3)cc2c1
pKi: 5.85
--
smiles_string: O=C(O)c1cc(-c2ccc([C@H]3C[C@H]4C[C@@H]3CN4)cc2)c2ccc(-c3ccc(C(F)(F)F)cc3)cc2c1
pKi: 6.15

Query string: Can you look up pKi on Sigma intracellular receptor 2 (Homo sapiens, UniProt Q5BJF2) for N[C@H]1C[C@@H](CO)[C@H](c2ccc(-c3cc(C(=O)O)cc4cc(-c5ccc(C(F)(F)F)cc5)ccc34)cc2)C1 ?
Result string: 5.96

###

solubility overview
- assay_protocol: Aqueous solubility of the compound at pH 4
- measurement_parameters: buffer
Output spec: scalar in µg/mL, unitless text.

Sample records with solubility:
molecule: O=C(O)c1cc(-c2ccc(C3CC4CCC(C3)N4)cc2)c2ccc(-c3ccc(C(F)(F)F)cc3)cc2c1 (centres undefined)
experimental_readout: solubility
unit_of_measurement: µg/mL
observed: 0.38
--
molecule: O=C(O)c1cc(-c2ccc([C@H]3C[C@H]4C[C@@H]3CN4)cc2)c2ccc(-c3ccc(C(F)(F)F)cc3)cc2c1 (racemic)
experimental_readout: solubility
unit_of_measurement: µg/mL
observed: 2.73
--
molecule: O=C(O)c1cc(-c2ccc([C@H]3C[C@H]4C[C@@H]3CN4)cc2)c2ccc(-c3ccc(C(F)(F)F)cc3)cc2c1
experimental_readout: solubility
unit_of_measurement: µg/mL
observed: 1.22
--
molecule: O=C(O)c1cc(-c2ccc(C34CCN(CC3)CC4)cc2)c2ccc(-c3ccc(C(F)(F)F)cc3)cc2c1
experimental_readout: solubility
unit_of_measurement: µg/mL
observed: 1.5
--
molecule: COC1(c2ccc(-c3cc(C(=O)O)cc4cc(-c5ccc(C(F)(F)F)cc5)ccc34)cc2)[C@H]2CC[C@H]1CNC2 (some centres undefined)
experimental_readout: solubility
unit_of_measurement: µg/mL
observed: 1.81
--
molecule: O=C(O)c1cc(-c2ccc([C@@H]3CCN[C@@H]4C[C@@H]43)cc2)c2ccc(-c3ccc(C(F)(F)F)cc3)cc2c1 (racemic)
experimental_readout: solubility
unit_of_measurement: µg/mL
observed: 0.24
--
molecule: CC(=O)N1C[C@@H]2C[C@H]1C[C@H]2c1ccc(-c2cc(C(=O)O)cc3cc(-c4ccc(C(F)(F)F)cc4)ccc23)cc1 (racemic)
experimental_readout: solubility
unit_of_measurement: µg/mL
observed: 0.13
--
molecule: O=C(O)c1cc(-c2ccc(C3[C@H]4CC[C@H]3CNC4)cc2)c2ccc(-c3ccc(C(F)(F)F)cc3)cc2c1 (some centres undefined)
experimental_readout: solubility
unit_of_measurement: µg/mL
observed: 0.32

Query string: Give its solubility value. Item: O=C(O)c1cc(-c2ccc(C3(O)[C@H]4CC[C@H]3CN(Cc3ccccc3)C4)cc2)c2ccc(-c3ccc(C(F)(F)F)cc3)cc2c1 (some centres undefined)
Result string: 0.48
